target: Potassium voltage-gated channel subfamily E member 1 (Homo sapiens) + Potassium voltage-gated channel subfamily KQT member 1 (Homo sapiens) (UniProt P15382+P51787); assay: KCNQ1/KCNE1 complex potentiators, confirmation, selectivity assay for KCNQ1 potentiator project, thallium flux, CHO-K1 KCNQ1/E1 cells (AID 493186); details: FluxOR thallium flux, at 10 µM
Calls of active or inactive are those of the source.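 How the source made its calls: active means mean duplicate activation above the buffer control mean plus 5 SD of those controls; inactive means the rest.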
Field 'call' accepts Yes (active), No (inactive)

Illustrative cases are given below, each with its answer.
Compound: CC1CN(c2nc3ccccc3nc2C(C#N)C(=O)NCc2ccc3c(c2)OCO3)CC(C)O1 (stereo not drawn)
Class name: No

Compound: CC1Oc2ccccc2N(CC(=O)N2CCCCCC2)C1=O (stereo not drawn)
Class name: No

Compound: O=C(Nc1ccccc1Br)c1ccccc1-c1ccccc1
Class name: No

Compound: COc1ccc(OC)c(Nc2cc3ccccc3c(=O)[nH]2)c1
Class name: No

Prompt: Outcome? O=C(N/N=C/c1ccc([N+](=O)[O-])o1)c1sc2ccccc2c1Cl
Response: No

Prompt: Outcome? Cn1c(=O)cc(NCc2ccccc2)[nH]c1=O
Response: No

Prompt: Outcome? CCOc1ccc(NC(=O)c2ccc(N)cc2)cc1
Response: No

Prompt: Outcome? O=C(NNc1ncc(C(F)(F)F)cc1Cl)c1ccc(Cl)c(Cl)c1
Response: No

Prompt: Outcome? O=C(CSc1nnc(-c2ccccn2)n1-c1ccc(Cl)cc1)Nc1ccc2c(c1)OCO2
Response: No

Data provenance: PubChem BioAssay
